Where do the numbers come from? From ChEMBL document CHEMBL3272032.

- Tested on: Enterococcus faecium
- TEST DESCRIPTION: Antibacterial activity against chlorguanide triazine-resistant Streptococcus faecium ATCC 8043 assessed as reduction in growth
- Format: functional, organism-based
pIC50: −log10 of the molar value.
Each item that follows carries a reported pIC50.
READOUT KIND: pIC50

TEST SMILES	TESTED TARGET	TEST VALUE
Nc1ccc(S(=O)(=O)c2ccc(N)cc2)cc1	Enterococcus faecium	< 2.40
O=C(NO)c1ccc(C(=O)NO)cc1	Enterococcus faecium	< 2.30
Nc1ccc(S(=O)(=O)Nc2ncccn2)cc1	Enterococcus faecium	< 2.40
C=C[C@H]1CN2CC[C@H]1C[C@H]2[C@H](O)c1ccnc2ccc(OC)cc12	Enterococcus faecium	< 2.60
NC1(C(=O)O)CCCC1	Enterococcus faecium	< 2.11
CCc1ccc(N2C(N)=NC(N)=NC2(C)C)cc1	Enterococcus faecium	< 3.46
CCOC(=O)c1cnc(S)nc1O	Enterococcus faecium	< 2.30

====

- System: Pediococcus
- TEST DESCRIPTION: Fold increase in resistance, ratio of IC50 for chlorguanide triazine-resistant Pediococcus cerevisiae ATCC 808 to IC50 for sensitive Pediococcus cerevisiae ATCC 808
- Type: functional
Each item that follows carries a reported Ratio IC50.

COMPOUND	OPERATOR	Ratio IC50
Nc1ccc(S(=O)(=O)c2ccc(N)cc2)cc1	>	4
COc1cc(Cc2cnc(N)nc2N)cc(OC)c1OC	=	6
Cc1nc(C)c(Cl)c(O)c1Cl	=	1
N=C(N)N/N=C(\c1ccc(F)cc1)c1ccc(C(F)(F)F)cc1	=	1
C=C[C@H]1CN2CC[C@H]1C[C@H]2[C@H](O)c1ccnc2ccc(OC)cc12	=	1
CC(CNc1nc(Nc2ccc(Cl)c(Cl)c2)nc(C(Cl)(Cl)Cl)n1)N(C)C (stereo unspecified)	=	1
